Target: T1, ARHGEF11, O15085
T1 sequence (O15085 42-136, limits assumed, looked up): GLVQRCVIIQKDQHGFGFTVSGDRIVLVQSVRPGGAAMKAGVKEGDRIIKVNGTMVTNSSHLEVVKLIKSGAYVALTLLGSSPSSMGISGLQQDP
Assay: holdup assay
Parameters: key: below the threshold = too weak to quantify, mostly under pKd 3.1 to 4
Settings: plain residues with an end cap or a label only (N-terminal biotin on a linker: ahx)
Catalogue of pKd readings, one per entry.
Simply state the number, no unit and no words.

YNSFLSVTTV [PDZRN3, Q9UPQ7] : 4.06

Per the records, this binder ( KDECVIATEV [DLL1, O00548] ) has pKd equal to 4.51

All values here come from paper PMC9482650.
